target-or-system: HLA-A*68:01 (Homo sapiens, UniProt P04439, A269V/D185E/E176V/E277Q/E87N/F33Y/G231S/I121M/I166T/I218V/L180W/L300P/L318F/N151K/P208A/P217A/Q86R/R169H/T345S)
Assay type: binding
condition-info: percent relative the binding of positive control peptide […]; duplicated experiments; positive binder >40%
Label Fulfilled when Bind A*68:01 is at or above 5%; otherwise label Not fulfilled.

KFQDAYNAA
Not fulfilled
DINTPAFEW
Not fulfilled
PSSDPAW ER
Fulfilled
EANTMAMMA [Rv0288_77–85]
Fulfilled
ELGGANIPA
Not fulfilled
MGDAGGYKA
Fulfilled
TSELPQW LS
Not fulfilled
NLKFQDAYN
Fulfilled
LAAYHPQQF
Fulfilled

----------
target-or-system: HLA-A*68:01 (Homo sapiens, UniProt P04439, A269V/D185E/E176V/E277Q/E87N/F33Y/G231S/I121M/I166T/I218V/L180W/L300P/L318F/N151K/P208A/P217A/Q86R/R169H/T345S)
Format: binding
experimental-endpoint: Aff A*68:01 (ED50) (E -05 M)

AAYHPQQFI
3
GT HSWEYWG
1

----------
target-or-system: HLA-A*30:02 (Homo sapiens, UniProt P04439, D101N/D140H/D185E/E176R/F33S/G80R/H175R/K168Q/Q94H/R138E/R41S/V100E)
Assay type: binding
condition-info: percent relative the binding of positive control peptide […]; duplicated experiments; positive binder >40%
Bind A*30:02 reference
experimental-endpoint: Bind A*30:02 (%)

QSSFYSDWY
90
VKPTGSAAI
0
AGSSAMILA
0
GT HSWEYWG
79
AMLDHAGDM [Rv0288_10–18m2]
100
DPSQGMGPS
29
FVRSSNLKF
94
AQLNAMKGD
56
GKAGCQTYK
58
QT YKWETFL
41
AYHSMSSTH [Rv0288_68–76m1]
70
GGANIPAEF
70
QSGLSIVMP
0
LDPSQGMGP
0
SLIGLAMGD
47
ALLDPSQGM
86
GMGPSLIGL
46
IYAGSLSAL
116
TMLGHAGDM [Rv0288_10–18m1]
99
AMILAAYHP
33
TMLDHAGDM [Rv0288_10–18m3]
0
WVYCGNGTP
0
MYNYPAMLD [Rv0288_5–13m2]
59
